biological target: Clone 402; assay: ITC titration of cocaine into Clone 402 antibody; format: binding; settings: clone 402 (Arista Biologicals); read-out: affinity to cocaine
pKd: −log10 of the molar value. Counter-ions that a name gives are not always drawn.
READOUT: pKd

Prompt line: Request - read-out pKd | tested on Clone 402 | molecule COC(=O)[C@H]1[C@@H](OC(=O)c2ccccc2)C[C@@H]2CC[C@H]1N2C [Cocaine, Cocaine hydrochloride]
Response line: ~5.00

---

molecular target: mAb08; test: ITC titration of drug into mAb08; type: binding, mouse; details: 25°C, sample mAb08+20% Serum
Where a name gives a salt, the structure may show the parent alone.
READOUT: Kd (nM)
Numbers only, in nM.

Prompt line: Kd for COC(=O)[C@H]1[C@@H](OC(=O)c2ccccc2)C[C@@H]2CC[C@H]1N2C [Cocaine, Cocaine hydrochloride] ?
Response line: 113

---

molecular target: f-mAb08; experiment: MST of fluorescently labeled f-mAb08 binding to drugs; parameters: species or system mouse; details: 25°C, 20 nM f-mAb08, 50% control human serum, read-out: K D ^2 (nM) (Serum%)
Counter-ions that a name gives are not always drawn.
READOUT: Kd (nM)
Numbers only, in nM.

Prompt line: Kd for COC(=O)[C@H]1[C@@H](OC(=O)c2ccccc2)C[C@@H]2CC[C@H]1N2C [Cocaine, Cocaine hydrochloride] ?
Response line: 128

---

Hi there, I'd appreciate the recorded Kd for every entry that follows.
Target: f-mAb08
Assay: MST of fluorescently labeled f-mAb08 binding to drugs
Parameters: species or system mouse
Conditions: 25°C, 20 nM f-mAb08, PBS (phosphate buffer), read-out: K D ^1 (nM) Enriched IgG
Method: The fluorescent labeling was performed with a reactive RED dye (NT-647) following the manufacturer’s protocol (Nanotemper, Germany). […] Free dye was removed by purification on a Sephadex G-25 column provided with the kit. […] The Red fluorescence was exited using a light-emitting diode, and its emission was recorded at a focused location of capillary. Using another infrared laser diode a microscopic temperature gradient was created at the same location and the fluorescence depletion was measured. […]
Where a name gives a salt, the structure may show the parent alone.
Answers are plain numbers, in nM.

> print(dat)
                                   compound  readout  val
1  COC(=O)[C@H]1[C@@H](OC(=O)c2ccccc2)C[C@@H]2CC[C@H]1N2C [Cocaine, Cocaine hydrochloride]       Kd  7.8

Dear colleague, could you please provide Kd for the compounds listed below?
1. CCOC(=O)[C@@H]1C2CCC(C[C@@H]1OC(=O)c1ccccc1)N2C (stereo partly drawn)
2. CN1[C@H]2CC[C@@H]1[C@@H](C(=O)O)[C@@H](OC(=O)c1ccccc1)C2

Response line:
47
23.7

---

target: mAb08; test: SPR competitive inhibition of mAb08 binding to immobilized BSA-SNC; set-up: species or system mouse; conditions: 50 nM mAb08 mixed with increasing drug concentrations, listed as BE
pIC50: −log10 of the molar value.
READOUT: pIC50

Prompt line: pIC50 for CN1[C@H]2CC[C@@H]1[C@@H](C(=O)O)[C@@H](OC(=O)c1ccccc1)C2 ?
Response line: ~6.91

---

molecular target: 20% human serum; assay: ITC titration of cocaine into 20% control human serum; type: binding; details: 45 µM cocaine to 20% control human serum
pKd: −log10 of the molar value. Where a name gives a salt, the structure may show the parent alone.
READOUT: pKd

Prompt line: pKd for COC(=O)[C@H]1[C@@H](OC(=O)c2ccccc2)C[C@@H]2CC[C@H]1N2C [Cocaine, Cocaine hydrochloride] ?
Response line: ~5.70

---

target: mAb08; test: SPR competitive inhibition of mAb08 binding to immobilized BSA-SNC; parameters: species or system mouse; conditions: 50 nM mAb08 mixed with increasing drug concentrations
READOUT: IC50 (nM)
Numbers only, in nM.

Prompt line: IC50 for CN1[C@H]2CC[C@@H]1[C@@H](C(=O)O)[C@@H](OC(=O)c1ccccc1)C2 ?
Response line: 123

---

target: Clone 402; assay: ITC titration of cocaine into Clone 402 antibody; type: binding; conditions: ITC, 25°C, sample Clone 402; read-out: K D
Counter-ions that a name gives are not always drawn.
READOUT: Kd (µM)
Give bare numbers, in µM.

Prompt line: Kd for COC(=O)[C@H]1[C@@H](OC(=O)c2ccccc2)C[C@@H]2CC[C@H]1N2C [Cocaine, Cocaine hydrochloride] ?
Response line: 10
